Molecular target: 11β-HSD1 (Homo sapiens)
Test: biochemical
Details: read-out: Average % inhibition at 111.1 nM, Biological Test Example 1; 111.1 nM compound
I would appreciate it if you labelled entries met when inhibition at 0.1111 µM is 50% or higher, otherwise not met.

Incoming: Can C=CC[C@]1(c2ccc(F)cc2)CCN([C@@H](C)c2ccc(Br)cc2)C(=O)O1 (single isomer, unassigned) [EXAMPLE 110 Isomer 2] be said to have inhibition at 0.1111 µM at or above 50%?
Outgoing: met

Continuing:
Incoming: Can CC1(c2ccccc2)CCN(c2cccc(-c3ccccc3NS(C)(=O)=O)c2)C(=O)O1 (stereo not shown) be said to have inhibition at 0.1111 µM at or above 50%?
Outgoing: not met

Incoming: Now give it for C[C@@H](c1cccc(OCC(C)(C)O)c1)N1CCC(C)(c2ccccc2)OC1=O (mixture of isomers) too.
Outgoing: not met

Incoming: Now give it for O=C1OC(CCO)(c2ccccc2F)CCN1c1cccc(-c2ccc(F)cc2F)[n+]1[O-] (stereo not shown) too.
Outgoing: not met

Incoming: Now give it for CC1(c2ccccc2)CCN(c2cccc(-c3ccccc3C#N)c2)C(=O)O1 (stereo not shown) too.
Outgoing: met

Incoming: Now give it for CC1(c2ccccc2)CCN(c2cccc(-c3ccc(C(N)=O)cc3)c2)C(=O)O1 (stereo not shown) too.
Outgoing: not met

Incoming: Now give it for C[C@@H](c1ccccc1)N1CC[C@](CCO)(c2ccc(F)cc2)OC1=O (single isomer, unassigned) [EXAMPLE 97 Isomer 2] too.
Outgoing: met

###

Below, each entry is listed with its recorded inhibition at 0.1111 µM.
Biological target: 11β-HSD1 (Homo sapiens, UniProt P28845)
Sequence (P28845 whole entry): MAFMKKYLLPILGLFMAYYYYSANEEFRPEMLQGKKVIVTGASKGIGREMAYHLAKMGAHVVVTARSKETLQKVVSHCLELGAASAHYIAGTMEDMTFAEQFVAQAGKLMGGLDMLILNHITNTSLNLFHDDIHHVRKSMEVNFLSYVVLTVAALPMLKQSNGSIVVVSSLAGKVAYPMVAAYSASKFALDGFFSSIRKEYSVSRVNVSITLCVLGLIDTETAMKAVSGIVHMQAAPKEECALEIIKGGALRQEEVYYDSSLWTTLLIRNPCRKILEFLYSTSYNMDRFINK
Experiment: biochemical
Conditions: read-out: Average % inhibition at 111.1 nM, Biological Test Example 1; 111.1 nM compound
Supply the numeric figure in %, leaving out any unit text.

Incoming: May I ask what inhibition at 0.1111 µM has been recorded for `C[C@@H](c1ccc(CO)cc1)N1CC[C@](CCCO)(c2ccc(F)cc2)OC1=O` ?
Outgoing: 79

Incoming: Now give it for CC(O)C[C@@]1(c2cccs2)CCN([C@@H](C)c2ccc(-c3ccc(F)cc3)cc2)C(=O)O1 (single isomer, unassigned) [EXAMPLE 167 Isomer 1] too.
Outgoing: 79

Incoming: Now give it for CN(C)S(=O)(=O)c1cccc(-c2cccc(N3CCC(C)(c4ccccc4)OC3=O)c2)c1 (stereo not shown) too.
Outgoing: 21.9

Incoming: Now give it for CC1(c2ccccc2)CCN(c2cccc(-c3ccc(CO)cc3)c2)C(=O)O1 (stereo not shown) too.
Outgoing: 37

Incoming: Now give it for CC(C)(O)CC1(c2ccccc2)CCN(c2cccc(-c3ccc(F)cc3F)c2)C(=O)O1 (stereo not shown) too.
Outgoing: 82.8

Continuing:
Incoming: May I ask what inhibition at 0.1111 µM has been recorded for CC1(c2ccccc2)CCN(c2nccc(-c3cccc(F)c3)n2)C(=O)O1 (stereo not shown) ?
Outgoing: 20.5

Incoming: Now give it for `C=CC[C@]1(c2ccc(F)cc2)CCN([C@@H](C)c2ccc(C3CC3)cc2)C(=O)O1` too.
Outgoing: 97.6

###

Biological target: 11β-HSD1 (Homo sapiens, UniProt P28845)
Experiment: biochemical
Settings: read-out: Average % inhibition at 111.1 nM, Biological Test Example 1; 111.1 nM compound
I would appreciate it if you labelled entries y when inhibition at 0.1111 µM is 90% or higher, otherwise n.

Here are 5 compounds together with their reported answers.
Incoming: Can CC1CC(CCO)(c2ccc(F)cc2)OC(=O)N1[C@@H](C)c1ccc(Br)cc1 (single isomer, unassigned) [EXAMPLE 163 Isomer 1] be said to have inhibition at 0.1111 µM at or above 90%?
Outgoing: n

Incoming: Now give it for COc1ccc([C@H](C)N2CCC(C)(c3ccccc3)OC2=O)cc1 (single isomer, unassigned) [EXAMPLE 85 Isomer 1] too.
Outgoing: y

Incoming: Now give it for O=C1OC(CCO)(c2ccccc2)CCN1c1cccc(-c2ccc(F)cc2F)n1 (stereo not shown) too.
Outgoing: y

Incoming: Now give it for `C=CC[C@]1(c2ccc(F)cc2)CCN([C@@H](C)c2ccc(C(N)=O)cc2)C(=O)O1` too.
Outgoing: n

Incoming: Now give it for CC1(c2ccccc2)CCN(c2cccc(-c3cc(F)ccc3F)c2)C(=O)O1 (stereo not shown) too.
Outgoing: n

Continuing:
Incoming: Can O=C1OC(CCO)(c2ccccc2F)CCN1c1cccc(-c2ccc(F)cc2Cl)n1 (stereo not shown) be said to have inhibition at 0.1111 µM at or above 90%?
Outgoing: y

Incoming: Now give it for CC1(c2ccccc2)CCN(c2cccc(-c3cccc(Cl)c3)c2)C(=O)O1 (stereo not shown) too.
Outgoing: n

Incoming: Now give it for C=CCC1(c2ccc(F)cc2)CCN(C(C)c2ccc(-c3ccc(F)cc3F)cn2)C(=O)O1 (stereo not shown) too.
Outgoing: n

Incoming: Now give it for O=C1OC(CCO)(c2ccccc2)CCN1c1cccc(Br)c1 (stereo not shown) too.
Outgoing: n

Incoming: Now give it for Cc1ccc(C2(C)CCN([C@@H](C)c3ccccc3)C(=O)O2)cc1 (single isomer, unassigned) [EXAMPLE 88 Isomer 1] too.
Outgoing: n

Incoming: Now give it for CC1(c2ccccc2)CCN(c2cccc(-c3ccc(S(C)(=O)=O)cc3)c2)C(=O)O1 (stereo not shown) too.
Outgoing: n

Incoming: Now give it for O=C1OC(CCO)(c2ccccc2F)CCN1c1cccc(-c2ccc(F)cc2)n1 (stereo not shown) too.
Outgoing: n

Incoming: Now give it for CC(=O)NCCC1(c2ccccc2)CCN(c2cccc(-c3ccc(F)cc3F)c2)C(=O)O1 (stereo not shown) too.
Outgoing: n

Incoming: Now give it for Cc1ccccc1C1(C)CCN([C@@H](C)c2ccccc2)C(=O)O1 (single isomer, unassigned) [EXAMPLE 86 Isomer 1] too.
Outgoing: n

Incoming: Now give it for O=C1OC(CCO)(c2ccc(F)cc2)CCN1c1ccc(F)c(-c2ccc(F)cc2Cl)c1 (stereo not shown) too.
Outgoing: y

Incoming: Now give it for CC1(c2ccccc2)CCN(Cc2ccccc2Br)C(=O)O1 (stereo not shown) too.
Outgoing: n

###

Target: UniProt P28845
Test: biochemical
Conditions: IC50 Range, microsomes from CHO cells overexpressing human 11β-HSD1
Readout label: IC50

Incoming: May I ask what IC50 has been recorded for C[C@@H](c1ccc(Br)cc1)N1CC[C@](CC(C)(C)NC(=O)C(C)(C)C)(c2ccccc2)OC1=O [EXAMPLE 693] ?
Outgoing: > 100 nM

###

Target: UniProtKB P28845
Conditions: Biological Test Example 1; 100 nM compound; 0.1 µM
Readout label: Average % inhibition at 100 nM (%)
Supply the numeric figure in %, leaving out any unit text.

Incoming: Enter reported Average % inhibition at 100 nM observed with UniProtKB P28845 for COc1ccc([C@H](C)N2CCC(CCCO)(c3ccc(F)cc3)OC2=O)cc1 (single isomer, unassigned) [EXAMPLE 201 Isomer 1]
Outgoing: 93.2

Incoming: Now give it for CC(C)(C)OC(=O)N1CCC(N2CCC(CCCO)(c3ccccc3)OC2=O)C1 (single isomer, unassigned) [EXAMPLE 208 Isomer 4] too.
Outgoing: 29.3

Now look at this one.
Incoming: Enter reported Average % inhibition at 100 nM observed with UniProtKB P28845 for O=C1OC(CCCO)(c2ccccc2)CCN1C1CC1c1ccccc1 (single isomer, unassigned) [EXAMPLE 188 Isomer 2]
Outgoing: 31.7

###

Molecular target: 11β-HSD1 (Homo sapiens)
Conditions: Biological Test Example 1; 100 nM compound; 0.1 µM
Readout label: Average % inhibition at 100 nM (%)
Supply the numeric figure in %, leaving out any unit text.

Please review the entries below; each comes with its answer.
Incoming: Enter reported Average % inhibition at 100 nM observed with 11β-HSD1 (Homo sapiens) for O=C1OC(CCCO)(c2ccccc2)CCN1C1CC1c1ccccc1 (single isomer, unassigned) [EXAMPLE 188 Isomer 1]
Outgoing: 77.0

Incoming: Now give it for CC[C@@H](c1ccc(Br)cc1)N1CC[C@](CC(O)CO)(c2ccc(F)cc2)OC1=O (single isomer, unassigned) [EXAMPLE 255 Isomer 2] too.
Outgoing: 89.3

Incoming: Now give it for CC(C)C1(CCCO)CCN([C@@H](C)c2ccc(-c3ccc(F)cc3F)cc2)C(=O)O1 (single isomer, unassigned) [EXAMPLE 212 Isomer 2] too.
Outgoing: 82.6

Incoming: Now give it for CC(C)C1(CC(O)CO)CCN([C@@H](C)c2ccc(-c3ccc(F)cc3F)cc2)C(=O)O1 (single isomer, unassigned) [EXAMPLE 223 Isomer 4] too.
Outgoing: 52.5

Now look at this one.
Incoming: Enter reported Average % inhibition at 100 nM observed with 11β-HSD1 (Homo sapiens) for COc1ccc([C@H](C)N2CCC(CC(O)CO)(c3ccccc3)OC2=O)cc1 (single isomer, unassigned) [EXAMPLE 286 Isomer 2]
Outgoing: 94.5
